METHOD: Human HepG2 cell viability assay in 384 well format
Assay type: toxicity, cell-based
Parameters: dose 125 nL, time 70.5 hour; concentration not given beside the values
RUN_CONDITIONS: HepG2 cells, read-out: Inhibition
Entries annotated with measured cytotoxicity at 70.5 h

COMPOUND: Cn1cc(CN2CC[C@H]3OCC[C@@H](C(=O)Nc4cnccn4)[C@@H]3C2)cn1
cytotoxicity at 70.5 h (%): 50.6

COMPOUND: CCN(Cc1nc2c(cnn2C)c(=O)[nH]1)c1ccc(F)cc1
cytotoxicity at 70.5 h (%): -3.68

COMPOUND: Cc1n[nH]c2c1C(c1cnn(C)c1)SCC(=O)N2 (centres undefined)
cytotoxicity at 70.5 h (%): -6.84

COMPOUND: COc1ccc(-n2ccc(C(=O)NCCN3CCCCC3)n2)cc1
cytotoxicity at 70.5 h (%): -4.18

COMPOUND: O=C(c1ccc(Cl)cc1)N1CCC(N2CCNC2=O)CC1
cytotoxicity at 70.5 h (%): -3.41

COMPOUND: c1ccc(-c2cc(CN3C[C@H]4CC[C@H]3C4)on2)cc1
cytotoxicity at 70.5 h (%): -4.67

COMPOUND: Cn1cc(CC(=O)N2CCCC(c3cc(C(F)(F)F)[nH]n3)C2)cn1 (centres undefined)
cytotoxicity at 70.5 h (%): 15.9

COMPOUND: CC/C(C)=C/CCN1CCN(C)C2(CCNC(=O)CC2)C1 (centres undefined)
cytotoxicity at 70.5 h (%): -6.34

COMPOUND: COCCN1C(=O)c2ccc(C(=O)NCCc3c[nH]cn3)cc2C1=O
cytotoxicity at 70.5 h (%): -5.32

COMPOUND: CCS(=O)(=O)CC(C)N(C)C(=O)COc1ccccc1C#N (centres undefined)
cytotoxicity at 70.5 h (%): -15.4

COMPOUND: CCc1ccc(C2NCCc3cc4c(cc32)OCCO4)cc1 (centres undefined)
cytotoxicity at 70.5 h (%): 8.93

COMPOUND: Cc1ccc(C(=O)N2CCC3(CC2)c2ccccc2[C@@H](N)[C@@H]3O)cc1F
cytotoxicity at 70.5 h (%): -10.1

COMPOUND: CCC(C)Oc1ccc(CNCCc2c[nH]cn2)cc1Cl (centres undefined)
cytotoxicity at 70.5 h (%): 24.1

COMPOUND: OCCN1CCN(CC(O)c2cc(Cl)ccc2Cl)CC1 (centres undefined)
cytotoxicity at 70.5 h (%): -3.64

COMPOUND: Cn1cc(CN2CCOC(Cc3cccc(F)c3)C2)cn1 (centres undefined)
cytotoxicity at 70.5 h (%): -6

COMPOUND: CC(=O)NCCSCCOc1cccc(Br)c1
cytotoxicity at 70.5 h (%): 17.6

COMPOUND: COC(CNC(=O)N1CCC(n2cncn2)CC1)c1ccccc1 (centres undefined)
cytotoxicity at 70.5 h (%): 6.02

COMPOUND: Cc1ccccc1NC(=O)CNC(C)COc1ccccc1 (centres undefined)
cytotoxicity at 70.5 h (%): -9.44

COMPOUND: COC[C@@]12CCO[C@@H]1CCN(C(=O)C1CC(F)(F)C1)C2
cytotoxicity at 70.5 h (%): -11.5

COMPOUND: CCC(=O)Nc1cccc(OCC(=O)N(C)CCCC2CCCO2)c1 (centres undefined)
cytotoxicity at 70.5 h (%): -3.54

COMPOUND: CC(C)(NCc1cccc(C(N)=O)c1)c1ccc2c(c1)OCO2
cytotoxicity at 70.5 h (%): -10

COMPOUND: CS(=O)(=O)c1ccc(O[C@H]2COCCN(Cc3ccncc3)C2)cc1
cytotoxicity at 70.5 h (%): -6.23

COMPOUND: c1cnc(N2CCCC(c3n[nH]c4ncccc34)C2)nc1 (centres undefined)
cytotoxicity at 70.5 h (%): -4.04

COMPOUND: Cc1cccc(-n2c(C)cc(C(=O)NS(C)(=O)=O)c2C)c1
cytotoxicity at 70.5 h (%): -14.6

COMPOUND: c1ccc(-c2nnc(CN3CCOC(Cn4cccn4)C3)o2)cc1 (centres undefined)
cytotoxicity at 70.5 h (%): -6.72

COMPOUND: O=C(NCCc1ccccn1)[C@@]12CCO[C@@H]1CCN(c1ncccn1)C2
cytotoxicity at 70.5 h (%): -2.15

COMPOUND: CC(C)N1CCC(Cc2cc(-c3ccccc3C(=O)O)ncn2)CC1
cytotoxicity at 70.5 h (%): 16.5

COMPOUND: CCn1ncc(Br)c1CN(C)S(=O)(=O)c1ccc(C)cc1
cytotoxicity at 70.5 h (%): 8.37

COMPOUND: CC(C)n1nc2c(cc1=O)CN(CCCN1CCCC1=O)CC2
cytotoxicity at 70.5 h (%): -9.82

COMPOUND: Cc1cc(=O)[nH]cc1C(=O)N1CCN(C)c2ccccc2C1
cytotoxicity at 70.5 h (%): -0.391

COMPOUND: CCN(Cc1ccc2c(c1)OCCO2)C(=O)c1ccc(C)[nH]c1=O
cytotoxicity at 70.5 h (%): -1.79

COMPOUND: Cc1cc(C)c2c(c1)C(NC(=O)CSCc1ccncc1)CCO2 (centres undefined)
cytotoxicity at 70.5 h (%): -7.37

COMPOUND: c1ccc2nc(N3CCCCC3)c(NCc3nnc4n3CCC4)nc2c1
cytotoxicity at 70.5 h (%): -8.39

COMPOUND: Cc1noc(C)c1CN(C)c1ncnc2onc(C)c12
cytotoxicity at 70.5 h (%): 9.42
